The molecules listed here are annotated with their melting point.

In the examples that follow, each entry is paired with its recorded melting point.
Cc1ccccc1NC(=S)NN=Cc1cc(C(C)(C)C)cc(C(C)(C)C)c1O 182 to 184 °C
CC(C)c1ccc(NC(=S)NN=Cc2cc(C(C)(C)C)cc(C(C)(C)C)c2O)cc1 189 to 191 °C
CC(C)(C)c1cc(C=NNC(=S)Nc2ccc(F)cc2)c(O)c(C(C)(C)C)c1 176 to 178 °C
COc1cccc(NC(=S)NN=Cc2cc(C(C)(C)C)cc(C(C)(C)C)c2O)c1 173 to 175 °C
Cc1ccc(NC(=S)NN=Cc2cc(C(C)(C)C)cc(C(C)(C)C)c2O)cc1 186 to 188 °C
CC(C)(C)c1cc(C=NNC(=S)Nc2ccccc2)c(O)c(C(C)(C)C)c1 178 to 180 °C
CC(C)(C)c1cc(C=NNC(=S)Nc2ccc(Cl)cc2)c(O)c(C(C)(C)C)c1 188 to 190 °C
CC(C)(C)c1cc(C=NNC(=S)Nc2ccccc2F)c(O)c(C(C)(C)C)c1 180 to 182 °C

Turning to the following molecule.
Dear colleague, I am looking for the recorded melting point of the following molecule: CC(C)(C)c1cc(C=NNC(=S)NCc2ccc(Cl)cc2)c(O)c(C(C)(C)C)c1
184 to 186 °C

====

ASSAYED_SYSTEM: ALR2 (Bos taurus)
Construct: from tissue; host or cells: calf eye lenses
PROTOCOL_NOTES: ALR2 enzyme inhibition assay (enzyme extracted from calf lenses)
Assay type: biochemical, bovine
PARTICULARS: bovine lens ALR2, 100 µM inhibitor; read-out: I (%, 100 µM) (ALR2) (converted)
MEASURED_PROPERTY: inhibition at 100 µM

CC(C)(C)c1cc(C=NNC(=S)Nc2ccc(Cl)cc2)c(O)c(C(C)(C)C)c1 81.5%
CC(C)(C)c1cc(C=NNC(=S)Nc2ccccc2F)c(O)c(C(C)(C)C)c1 85.1%
CC(C)c1ccc(NC(=S)NN=Cc2cc(C(C)(C)C)cc(C(C)(C)C)c2O)cc1 ≤ 39.1%
CC(C)(C)c1cc(C=NNC(=S)NC2CCCCC2)c(O)c(C(C)(C)C)c1 ≤ 39.1%
Cc1ccc(NC(=S)NN=Cc2cc(C(C)(C)C)cc(C(C)(C)C)c2O)cc1 ≤ 44.6%
CC(C)(C)c1cc(C=NNC(=S)NCCc2ccccc2)c(O)c(C(C)(C)C)c1 ≤ 39.1%

Request: inhibition at 100 µM, test system ALR2 (Bos taurus), entry Cc1ccc(NC(=S)NN=Cc2cc(C(C)(C)C)cc(C(C)(C)C)c2O)c(C)c1
≤ 44.6%

Record: CC(C)(C)c1cc(C=NNC(=S)Nc2ccc(Br)cc2)c(O)c(C(C)(C)C)c1
≤ 39.1%

====

ASSAYED_SYSTEM: human AKR1B1 (hAKR1B1) (Homo sapiens)
Construct: made in house; host or cells: E. coli BL21 (DE3)
PROTOCOL_NOTES: Inhibition of expressed human AKR1B1 (E. coli BL21 (DE3))
Assay type: biochemical
PARTICULARS: human AKR1B1 expressed in E. coli, 100 µM inhibitor; read-out: I (%, 100 µM) (AKR1B1)
Method: For the enzyme inhibition assay, ALR2 and ALR1 were extracted from bovine sources (ALR2 from eyes and ALR1 from kidneys). Moreover, inhibitions studies were also carried out on the expressed ALR2 (human AKR1B1) and inhibition data for ALR2- bovine source and expressed enzyme was compared and analyzed. […] The expression plasmid for aldose reductase (pDONR223_AKR1B1_WT) was gift from Addgene in stable culture. […] Protein quantification was performed following Bradford protein assay. […]
MEASURED_PROPERTY: inhibition at 100 µM (%)
Write the value in % as a bare number.

CC(C)(C)c1cc(C=NNC(=S)NCc2ccccc2)c(O)c(C(C)(C)C)c1 12.3

Would you kindly share the measured inhibition at 100 µM for Cc1ccc(NC(=S)NN=Cc2cc(C(C)(C)C)cc(C(C)(C)C)c2O)c(C)c1 ?
27.4

Moving on to the next compound: Cc1ccc(NC(=S)NN=Cc2cc(C(C)(C)C)cc(C(C)(C)C)c2O)cc1
41.2

Follow-up item: CC(C)(C)c1cc(C=NNC(=S)NCCc2ccccc2)c(O)c(C(C)(C)C)c1
24.9

How about this compound: Cc1ccccc1NC(=S)NN=Cc1cc(C(C)(C)C)cc(C(C)(C)C)c1O
3.56

Also CC(C)(C)c1cc(C=NNC(=S)Nc2ccc(Br)cc2)c(O)c(C(C)(C)C)c1 ?
22.3

Also check CC(C)c1ccc(NC(=S)NN=Cc2cc(C(C)(C)C)cc(C(C)(C)C)c2O)cc1
22.6

One more compound: CC(C)(C)c1cc(C=NNC(=S)NC2CCCCC2)c(O)c(C(C)(C)C)c1
38

Taken from paper PMC8986850.
